Tested on: Klebsiella pneumoniae
Assay: Activity of Klebsiella pneumoniae TEM26 assessed as drug hydrolysis by spectrophotometry
property label: log10 of Km (log10 of the value in µM)
Scale: decimal log of Km, Km in µM.

Readout log10 of Km for CC1(C)S[C@@H]2[C@H](NC(=O)Cc3ccccc3)C(=O)N2[C@H]1C(=O)O , test system Klebsiella pneumoniae, was 0.70

Klebsiella pneumoniae data for Nc1nc(/C(=N/O)C(=O)N[C@@H]2C(=O)N3C(C(=O)O)=C(/C=C4\CCN([C@@H]5CCNC5)C4=O)CS[C@H]23)ns1 ; its log10 of Km: 1.80

Known value: Klebsiella pneumoniae log10 of Km of the molecule CO/N=C(\C(=O)N[C@@H]1C(=O)N2C(C(=O)[O-])=C(C[N+]3(C)CCCC3)CS[C@H]12)c1csc(N)n1 equals 1.81

Record CC(C)(O/N=C(\C(=O)N[C@@H]1C(=O)N2C(C(=O)[O-])=C(C[n+]3ccccc3)CS[C@H]12)c1csc(N)n1)C(=O)O ; system Klebsiella pneumoniae; log10 of Km = 2.11

With Klebsiella pneumoniae as the test system, O=C(Cc1cccs1)N[C@@H]1C(=O)N2C(C(=O)[O-])=C(C[n+]3ccccc3)CS[C@H]12 showed log10 of Km of 1.82

Klebsiella pneumoniae data for CO/N=C(\C(=O)N[C@@H]1C(=O)N2C(C(=O)O)=C(COC(C)=O)CS[C@H]12)c1csc(N)n1 ; its log10 of Km: 1.18

###

Target: Beta-lactamase (Serratia marcescens) (UniProt P18539)
Sequence (P18539 whole entry): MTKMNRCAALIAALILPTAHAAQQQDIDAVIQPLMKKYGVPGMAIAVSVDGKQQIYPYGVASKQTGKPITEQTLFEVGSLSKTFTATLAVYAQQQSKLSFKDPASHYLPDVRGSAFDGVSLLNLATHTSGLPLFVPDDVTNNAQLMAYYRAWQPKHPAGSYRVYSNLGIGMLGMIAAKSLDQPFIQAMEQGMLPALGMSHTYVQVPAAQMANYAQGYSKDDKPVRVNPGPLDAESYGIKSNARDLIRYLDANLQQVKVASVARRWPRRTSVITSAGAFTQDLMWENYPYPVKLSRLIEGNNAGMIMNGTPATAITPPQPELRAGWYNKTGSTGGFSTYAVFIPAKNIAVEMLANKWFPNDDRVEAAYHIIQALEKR
Assay: Activity of Serratia marcescens AmpC assessed as drug hydrolysis by spectrophotometry relative to cephaloridine
Parameters: scale not given: the % may be the effect or the level left
property label: Activity (%)
Only the number, expressed in %, is required.

| molecular string | experimental system | Activity, % |
| --- | --- | --- |
| O=C(Cc1cccs1)N[C@@H]1C(=O)N2C(C(=O)O)=C(/C=C/c3ccc([N+](=O)[O-])cc3[N+](=O)[O-])CS[C@H]12 | Beta-lactamase (Serratia marcescens) (UniProt P18539) | 42 |

Activity reading for CC1(C)S[C@@H]2[C@H](NC(=O)Cc3ccccc3)C(=O)N2[C@H]1C(=O)O : 0.95

###

Biological target: Carbapenem-hydrolyzing beta-lactamase SME-3 (Serratia marcescens) (UniProt Q6PRG8)
Sequence (whole entry): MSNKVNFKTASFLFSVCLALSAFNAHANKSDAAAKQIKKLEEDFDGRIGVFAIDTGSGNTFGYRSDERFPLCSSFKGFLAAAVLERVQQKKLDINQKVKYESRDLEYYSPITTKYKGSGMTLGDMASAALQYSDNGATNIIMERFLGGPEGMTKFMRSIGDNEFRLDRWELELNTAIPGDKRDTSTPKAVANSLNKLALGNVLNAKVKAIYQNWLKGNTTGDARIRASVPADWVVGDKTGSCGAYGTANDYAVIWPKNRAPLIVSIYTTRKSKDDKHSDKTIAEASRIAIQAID
Experiment: Activity of Serratia marcescens SME3 assessed as drug hydrolysis by spectrophotometry relative to cephaloridine
Parameters: scale not given: the % may be the effect or the level left
Each entry below carries its recorded Activity.
Put down the number, then write its unit next to it.

Look over these answered cases.
| molecular string | measurement |
| --- | --- |
| Nc1nc(/C(=N/O)C(=O)N[C@@H]2C(=O)N3C(C(=O)O)=C(/C=C4\CCN([C@@H]5CCNC5)C4=O)CS[C@H]23)ns1 | 0.49% |
| CC(C)(O/N=C(\C(=O)N[C@@H]1C(=O)N2C(C(=O)[O-])=C(C[n+]3ccccc3)CS[C@H]12)c1csc(N)n1)C(=O)O | 0.013% |
| CO/N=C(\C(=O)N[C@@H]1C(=O)N2C(C(=O)[O-])=C(C[N+]3(C)CCCC3)CS[C@H]12)c1csc(N)n1 | 0.13% |

Activity reported for this compound CC1(C)S[C@@H]2[C@H](NC(=O)Cc3ccccc3)C(=O)N2[C@H]1C(=O)O : 0.73%

###

Target: Metallo beta-lactamase (Pseudomonas aeruginosa) (UniProt Q6TUJ4)
Sequence (Q6TUJ4 as listed by the source): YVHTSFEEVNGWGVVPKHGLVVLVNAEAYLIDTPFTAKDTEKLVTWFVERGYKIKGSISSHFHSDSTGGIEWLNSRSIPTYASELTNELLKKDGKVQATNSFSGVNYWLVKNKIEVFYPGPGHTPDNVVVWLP
Assay: Ratio of Kcat to Km of Pseudomonas aeruginosa IMP1 assessed as drug hydrolysis by spectrophotometry relative to cephaloridine
Parameters: scale not given: the % may be the effect or the level left
property label: Activity
Answer shape: numeric part, then the unit.

Examples with answers:
| molecular string | property label | measurement |
| --- | --- | --- |
| CO/N=C(\C(=O)N[C@@H]1C(=O)N2C(C(=O)[O-])=C(C[N+]3(C)CCCC3)CS[C@H]12)c1csc(N)n1 | Activity | 200% |
| Nc1nc(/C(=N/O)C(=O)N[C@@H]2C(=O)N3C(C(=O)O)=C(/C=C4\CCN([C@@H]5CCNC5)C4=O)CS[C@H]23)ns1 | Activity | 990% |
| CC(C)(O/N=C(\C(=O)N[C@@H]1C(=O)N2C(C(=O)[O-])=C(C[n+]3ccccc3)CS[C@H]12)c1csc(N)n1)C(=O)O | Activity | 120% |

Value of Activity reported for the compound CC1(C)S[C@@H]2[C@H](NC(=O)Cc3ccccc3)C(=O)N2[C@H]1C(=O)O is 750%

###

Tested on: Klebsiella pneumoniae
Assay: Activity of Klebsiella pneumoniae TEM26 assessed as drug hydrolysis by spectrophotometry relative to cephaloridine
Design: scale not given: the % may be the effect or the level left
In this section we review reported Activity values for a set of compounds.
Numbers only here, please. The scale is %.

# annotated cases, reported Activity shown
| molecular string | Activity (%) |
| --- | --- |
| CO/N=C(\C(=O)N[C@@H]1C(=O)N2C(C(=O)[O-])=C(C[N+]3(C)CCCC3)CS[C@H]12)c1csc(N)n1 | 54 |
| CC(C)(O/N=C(\C(=O)N[C@@H]1C(=O)N2C(C(=O)[O-])=C(C[n+]3ccccc3)CS[C@H]12)c1csc(N)n1)C(=O)O | 260 |
| Nc1nc(/C(=N/O)C(=O)N[C@@H]2C(=O)N3C(C(=O)O)=C(/C=C4\CCN([C@@H]5CCNC5)C4=O)CS[C@H]23)ns1 | 19 |

Measured Activity, CO/N=C(\C(=O)N[C@@H]1C(=O)N2C(C(=O)O)=C(COC(C)=O)CS[C@H]12)c1csc(N)n1 : 7.8

Activity reported for this compound CC1(C)S[C@@H]2[C@H](NC(=O)Cc3ccccc3)C(=O)N2[C@H]1C(=O)O : 210

###

Molecular target: Carbapenem-hydrolyzing beta-lactamase SME-3 (Serratia marcescens) (UniProt Q6PRG8)
Experiment: Ratio of Kcat to Km of Serratia marcescens SME3 assessed as drug hydrolysis by spectrophotometry relative to cephaloridine
Design: scale not given: the % may be the effect or the level left
property label: Activity

Below, 3 compounds whose answers are already recorded.
| molecular string | measurement |
| --- | --- |
| CC(C)(O/N=C(\C(=O)N[C@@H]1C(=O)N2C(C(=O)[O-])=C(C[n+]3ccccc3)CS[C@H]12)c1csc(N)n1)C(=O)O | 0.031% |
| CC1(C)S[C@@H]2[C@H](NC(=O)Cc3ccccc3)C(=O)N2[C@H]1C(=O)O | 130% |
| CO/N=C(\C(=O)N[C@@H]1C(=O)N2C(C(=O)[O-])=C(C[N+]3(C)CCCC3)CS[C@H]12)c1csc(N)n1 | 0.18% |

Shifting focus to the compound that follows.
Measured Activity of Nc1nc(/C(=N/O)C(=O)N[C@@H]2C(=O)N3C(C(=O)O)=C(/C=C4\CCN([C@@H]5CCNC5)C4=O)CS[C@H]23)ns1 : 0.73%

###

Molecular target: Beta-lactamase (Morganella morganii)
Assay: Ratio of Kcat to Km of Morganella morganii AmpC assessed as drug hydrolysis by spectrophotometry relative to cephaloridine
Design: scale not given: the % may be the effect or the level left
This section presents compounds with their documented Activity values.
Express it in %; write the number only.

| molecular string | measurement |
| --- | --- |
| CC1(C)S[C@@H]2[C@H](NC(=O)Cc3ccccc3)C(=O)N2[C@H]1C(=O)O | 860 |

Now look at this one.
The measured Activity associated with O=C(Cc1cccs1)N[C@@H]1C(=O)N2C(C(=O)O)=C(/C=C/c3ccc([N+](=O)[O-])cc3[N+](=O)[O-])CS[C@H]12 reads 1400

###

The entries below come with measured log10 kcat/Km values attached.
Tested on: Klebsiella pneumoniae
Experiment: Ratio of Kcat to Km of Klebsiella pneumoniae TEM26 assessed as drug hydrolysis by spectrophotometry
Annotation: log10 of kcat/Km, M⁻¹ s⁻¹ basis.

Reported log10 kcat/Km for CC(C)(O/N=C(\C(=O)N[C@@H]1C(=O)N2C(C(=O)[O-])=C(C[n+]3ccccc3)CS[C@H]12)c1csc(N)n1)C(=O)O was 5.86

Lab book: log10 kcat/Km of O=C(Cc1cccs1)N[C@@H]1C(=O)N2C(C(=O)[O-])=C(C[n+]3ccccc3)CS[C@H]12 noted as 5.75

Quick note, log10 kcat/Km for CO/N=C(\C(=O)N[C@@H]1C(=O)N2C(C(=O)[O-])=C(C[N+]3(C)CCCC3)CS[C@H]12)c1csc(N)n1 landed at 5.49
